TEST_DETAILS: activity coefficient (dimensionless); of the first substance listed, at infinite dilution; xn = mol fraction of the nth substance listed
PROTOCOL_CONDITIONS: 363.15 K; Liquid; Chromatography; x1 = 0
READOUT_NAME: activity coefficient

{"COMPOUND": "CC1CCCCC1 [methylcyclohexane] + C[n+]1ccn(CCO)c1.F[B-](F)(F)F", "activity coefficient": 677}

Q: Return reported activity coefficient; argument: CCCCCCCC [octane] + C[n+]1ccn(CCO)c1.F[B-](F)(F)F
A: 760

Q: Return reported activity coefficient; argument: CCCCCCCCC [nonane] + C[n+]1ccn(CCO)c1.F[B-](F)(F)F
A: 651

Q: Return reported activity coefficient; argument: Cc1ccccc1C [1,2-dimethylbenzene] + C[n+]1ccn(CCO)c1.F[B-](F)(F)F
A: 25.4

Q: Return reported activity coefficient; argument: Cc1cccc(C)c1 [1,3-dimethylbenzene] + C[n+]1ccn(CCO)c1.F[B-](F)(F)F
A: 32.5

====

TEST_DETAILS: activity coefficient (dimensionless); of the first substance listed, at infinite dilution; xn = mol fraction of the nth substance listed
PROTOCOL_CONDITIONS: 353.15 K; Liquid; Chromatography; x1 = 0
// activity coefficient lookup, one value per entry

Consider the worked cases shown below.
{"MOLECULE": "C1=CCCCC1 [cyclohexene] + C[n+]1ccn(CCO)c1.F[B-](F)(F)F", "READOUT_NAME": "activity coefficient", "RESULT": 103}
{"MOLECULE": "CCCCCCC [heptane] + C[n+]1ccn(CCO)c1.F[B-](F)(F)F", "READOUT_NAME": "activity coefficient", "RESULT": 2980}
{"MOLECULE": "Cc1ccccc1 [toluene] + C[n+]1ccn(CCO)c1.F[B-](F)(F)F", "READOUT_NAME": "activity coefficient", "RESULT": 17.2}

Q: Return reported activity coefficient; argument: CCCCCCCC [octane] + C[n+]1ccn(CCO)c1.F[B-](F)(F)F
A: 709

Q: Return reported activity coefficient; argument: C1CCCCC1 [cyclohexane] + C[n+]1ccn(CCO)c1.F[B-](F)(F)F
A: 803

Q: Return reported activity coefficient; argument: CCCCCCCCC [nonane] + C[n+]1ccn(CCO)c1.F[B-](F)(F)F
A: 633

Q: Return reported activity coefficient; argument: Cc1ccc(C)cc1 [1,4-dimethylbenzene] + C[n+]1ccn(CCO)c1.F[B-](F)(F)F
A: 32

Q: Return reported activity coefficient; argument: c1ccccc1 [benzene] + C[n+]1ccn(CCO)c1.F[B-](F)(F)F
A: 9.05

====

TEST_DETAILS: activity coefficient (dimensionless); of the first substance listed, at infinite dilution; xn = mol fraction of the nth substance listed
PROTOCOL_CONDITIONS: 343.15 K; Liquid; Chromatography; x1 = 0
READOUT_NAME: activity coefficient
Reply briefly: the number, and no unit.

{"COMPOUND": "CCCCCCCCC [nonane] + C[n+]1ccn(CCO)c1.F[B-](F)(F)F", "activity coefficient": 616}

Q: Return reported activity coefficient; argument: Cc1ccc(C)cc1 [1,4-dimethylbenzene] + C[n+]1ccn(CCO)c1.F[B-](F)(F)F
A: 32.5

Q: Return reported activity coefficient; argument: CCCCCCC [heptane] + C[n+]1ccn(CCO)c1.F[B-](F)(F)F
A: 2190

Q: Return reported activity coefficient; argument: C=Cc1ccccc1 [styrene] + C[n+]1ccn(CCO)c1.F[B-](F)(F)F
A: 14.4

Q: Return reported activity coefficient; argument: C1CCCCC1 [cyclohexane] + C[n+]1ccn(CCO)c1.F[B-](F)(F)F
A: 689

Q: Return reported activity coefficient; argument: CC(C)CC(C)(C)C [2,2,4-trimethylpentane] + C[n+]1ccn(CCO)c1.F[B-](F)(F)F
A: 1300

Q: Return reported activity coefficient; argument: CC1CCCCC1 [methylcyclohexane] + C[n+]1ccn(CCO)c1.F[B-](F)(F)F
A: 546

====

// activity coefficient lookup, one value per entry
TEST_DETAILS: activity coefficient (dimensionless); of the first substance listed, at infinite dilution; xn = mol fraction of the nth substance listed
PROTOCOL_CONDITIONS: 363.15 K; Liquid; Chromatography; x1 = 0
Reply briefly: the number, and no unit.

Consider the worked cases shown below.
{"COMPOUND": "CCc1ccccc1 [ethylbenzene] + C[n+]1ccn(CCO)c1.F[B-](F)(F)F", "READOUT_NAME": "activity coefficient", "NUMBER": 35}
{"COMPOUND": "CCCCCCC [heptane] + C[n+]1ccn(CCO)c1.F[B-](F)(F)F", "READOUT_NAME": "activity coefficient", "NUMBER": 4220}

Okay, now this compound:
Q: Return reported activity coefficient; argument: C=Cc1ccccc1 [styrene] + C[n+]1ccn(CCO)c1.F[B-](F)(F)F
A: 14

====

TEST_DETAILS: activity coefficient (dimensionless); of the first substance listed, at infinite dilution; xn = mol fraction of the nth substance listed
PROTOCOL_CONDITIONS: 363.15 K; Liquid; Chromatography; x1 = 0
READOUT_NAME: activity coefficient
Reply briefly: the number, and no unit.

Consider the worked cases shown below.
{"COMPOUND": "C1CCCCC1 [cyclohexane] + C[n+]1ccn(CCO)c1.F[B-](F)(F)F", "READOUT_NAME": "activity coefficient", "NUMBER": 934}
{"COMPOUND": "CC(C)CC(C)(C)C [2,2,4-trimethylpentane] + C[n+]1ccn(CCO)c1.F[B-](F)(F)F", "READOUT_NAME": "activity coefficient", "NUMBER": 2310}
{"COMPOUND": "c1ccccc1 [benzene] + C[n+]1ccn(CCO)c1.F[B-](F)(F)F", "READOUT_NAME": "activity coefficient", "NUMBER": 9.04}

Okay, now this compound:
Q: Return reported activity coefficient; argument: Cc1ccc(C)cc1 [1,4-dimethylbenzene] + C[n+]1ccn(CCO)c1.F[B-](F)(F)F
A: 31.4

====

TEST_DETAILS: activity coefficient (dimensionless); of the first substance listed, at infinite dilution; xn = mol fraction of the nth substance listed
PROTOCOL_CONDITIONS: 353.15 K; Liquid; Chromatography; x1 = 0
READOUT_NAME: activity coefficient

Consider the worked cases shown below.
{"COMPOUND": "Cc1cccc(C)c1 [1,3-dimethylbenzene] + C[n+]1ccn(CCO)c1.F[B-](F)(F)F", "activity coefficient": 33.2}
{"COMPOUND": "CC1CCCCC1 [methylcyclohexane] + C[n+]1ccn(CCO)c1.F[B-](F)(F)F", "activity coefficient": 611}
{"COMPOUND": "C=Cc1ccccc1 [styrene] + C[n+]1ccn(CCO)c1.F[B-](F)(F)F", "activity coefficient": 14.2}
{"COMPOUND": "Cc1ccccc1C [1,2-dimethylbenzene] + C[n+]1ccn(CCO)c1.F[B-](F)(F)F", "activity coefficient": 25.9}
{"COMPOUND": "CCc1ccccc1 [ethylbenzene] + C[n+]1ccn(CCO)c1.F[B-](F)(F)F", "activity coefficient": 35.9}

Q: Return reported activity coefficient; argument: CC(C)CC(C)(C)C [2,2,4-trimethylpentane] + C[n+]1ccn(CCO)c1.F[B-](F)(F)F
A: 1700
